Value source: patent US10428140B2

Task for the reader: assign each of the following molecules its reported SEAP-His: absorbance at 450 nm, percentage with respect to hEphA4-SEAP-His as 100%.
- Assayed System: SEAP-His (Homo sapiens, UniProt P05187)
- Sequence (P05187 23-511 limits assumed): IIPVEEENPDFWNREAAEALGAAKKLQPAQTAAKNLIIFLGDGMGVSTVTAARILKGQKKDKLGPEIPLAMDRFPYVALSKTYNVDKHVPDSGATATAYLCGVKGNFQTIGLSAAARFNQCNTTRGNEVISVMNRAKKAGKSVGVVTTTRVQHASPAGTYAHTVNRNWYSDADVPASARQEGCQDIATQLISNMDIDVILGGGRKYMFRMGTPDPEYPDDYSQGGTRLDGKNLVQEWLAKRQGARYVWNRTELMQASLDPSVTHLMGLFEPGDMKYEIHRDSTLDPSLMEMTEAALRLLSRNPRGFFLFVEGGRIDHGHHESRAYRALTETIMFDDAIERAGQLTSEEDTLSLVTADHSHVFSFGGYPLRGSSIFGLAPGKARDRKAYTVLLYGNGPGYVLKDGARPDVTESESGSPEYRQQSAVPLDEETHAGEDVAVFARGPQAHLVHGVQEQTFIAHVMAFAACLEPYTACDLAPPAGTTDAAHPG
- Measurement Notes: Selectivity ELISA of humanized antibodies for human Eph receptor
- Assay type: binding
- Test Parameters: coated protein 1 nM
Note: state the figure and append the unit.

>>> reported_result("145 (antibody, V domains shown, synthetic humanized antibody heavy chain variable region sequence; synthetic humanized antibody light chain variable region sequence) VH: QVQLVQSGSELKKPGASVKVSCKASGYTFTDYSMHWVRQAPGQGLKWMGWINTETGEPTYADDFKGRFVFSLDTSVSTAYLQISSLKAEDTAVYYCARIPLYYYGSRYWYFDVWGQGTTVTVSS VL: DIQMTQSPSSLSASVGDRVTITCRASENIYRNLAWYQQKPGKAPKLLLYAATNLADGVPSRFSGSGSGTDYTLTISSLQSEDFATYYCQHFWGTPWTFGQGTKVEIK")
"6.4%"
>>> reported_result("84 (antibody, V domains shown, constant regions without entry; synthetic humanized antibody light chain variable region sequence; synthetic humanized antibody heavy chain variable region sequence) VL: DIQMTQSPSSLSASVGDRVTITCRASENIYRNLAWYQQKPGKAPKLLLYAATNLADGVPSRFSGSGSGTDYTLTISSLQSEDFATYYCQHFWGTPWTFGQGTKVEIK VH: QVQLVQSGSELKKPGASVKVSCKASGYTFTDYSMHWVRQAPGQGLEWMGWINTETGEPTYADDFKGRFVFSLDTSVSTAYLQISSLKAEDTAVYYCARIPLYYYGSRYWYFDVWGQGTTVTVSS")
"5.1%"
>>> reported_result("76 (antibody, V domains shown, synthetic humanized antibody heavy chain variable region sequence; synthetic humanized antibody light chain variable region sequence) VH: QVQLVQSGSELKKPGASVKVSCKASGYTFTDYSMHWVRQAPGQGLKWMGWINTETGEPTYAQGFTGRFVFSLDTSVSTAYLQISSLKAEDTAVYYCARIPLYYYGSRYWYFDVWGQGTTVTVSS VL: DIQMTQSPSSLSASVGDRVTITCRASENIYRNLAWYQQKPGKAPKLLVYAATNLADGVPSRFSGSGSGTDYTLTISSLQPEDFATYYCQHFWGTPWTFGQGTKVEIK")
"5.5%"
>>> reported_result("92 (antibody, V domains shown, constant regions without entry; synthetic humanized antibody light chain variable region sequence; synthetic humanized antibody heavy chain variable region sequence) VL: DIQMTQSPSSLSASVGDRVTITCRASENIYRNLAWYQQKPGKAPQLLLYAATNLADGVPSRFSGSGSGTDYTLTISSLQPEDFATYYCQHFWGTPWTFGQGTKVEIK VH: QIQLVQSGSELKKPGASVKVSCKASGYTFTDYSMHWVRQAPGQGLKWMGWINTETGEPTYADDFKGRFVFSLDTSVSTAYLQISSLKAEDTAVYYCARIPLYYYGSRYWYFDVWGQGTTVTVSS")
"6.5%"
>>> reported_result("138 (antibody, V domains shown, synthetic humanized antibody heavy chain variable region sequence; synthetic humanized antibody light chain variable region sequence) VH: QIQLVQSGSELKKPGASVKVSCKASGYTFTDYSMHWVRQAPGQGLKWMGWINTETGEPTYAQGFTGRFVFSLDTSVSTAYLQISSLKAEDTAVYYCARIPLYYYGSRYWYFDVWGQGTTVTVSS VL: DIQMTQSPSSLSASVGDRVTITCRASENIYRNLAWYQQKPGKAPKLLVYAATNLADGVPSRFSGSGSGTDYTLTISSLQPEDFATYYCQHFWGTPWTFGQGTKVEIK")
"5.1%"

Quick one: give me SEAP-His: absorbance at 450 nm, percentage with respect to hEphA4-SEAP-His as 100% for each item below, same order please.
1. 91 (antibody, V domains shown, constant regions without entry; synthetic humanized antibody light chain variable region sequence; synthetic humanized antibody heavy chain variable region sequence) VL: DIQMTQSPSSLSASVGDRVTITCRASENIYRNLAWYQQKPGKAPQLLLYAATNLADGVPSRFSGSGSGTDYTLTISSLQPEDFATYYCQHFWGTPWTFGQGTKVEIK VH: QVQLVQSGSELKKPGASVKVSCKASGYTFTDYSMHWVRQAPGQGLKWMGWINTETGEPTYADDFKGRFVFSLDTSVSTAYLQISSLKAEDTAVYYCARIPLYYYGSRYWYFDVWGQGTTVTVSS
2. 94 (antibody, V domains shown, constant regions without entry; synthetic humanized antibody light chain variable region sequence; synthetic humanized antibody heavy chain variable region sequence) VL: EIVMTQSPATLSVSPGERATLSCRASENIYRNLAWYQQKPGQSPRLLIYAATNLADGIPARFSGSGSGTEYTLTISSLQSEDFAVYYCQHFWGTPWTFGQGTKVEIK VH: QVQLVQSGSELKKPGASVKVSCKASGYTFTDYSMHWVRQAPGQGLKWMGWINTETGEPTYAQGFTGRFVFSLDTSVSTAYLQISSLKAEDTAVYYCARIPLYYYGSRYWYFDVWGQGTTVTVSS

["6.4%", "6.7%"]
